Tested on: MDA-MB-435
ASSAY_COMMENT: NCI tumour cell line growth inhibition, 48 h; in the data active = GI50 below about 0.43 µM; inactive = the rest
Possible outcomes: 1.0 for active, 0.0 for inactive

COMPOUND | TARGET_OF_ASSAY | CLASS
O=C1C(Cl)=C(Nc2cccc(O)c2)C(=O)N1c1cccc(Cl)c1Cl | MDA-MB-435 | 0.0
COC(=O)c1ccc(C2SCC(=O)N2NC(=O)C(O)c2ccccc2)cc1 (stereo not given) | MDA-MB-435 | 0.0
C=C1N(C)c2ccc(Cl)cc2C1(C)C | MDA-MB-435 | 0.0
Cc1ccc(NC(=O)c2nc(S(C)=O)oc2-c2ccc(F)cc2)cc1Nc1nccc(-c2cccnc2)n1 (stereo not given) | MDA-MB-435 | 0.0
NC[C@@](O)(c1ccc(Cl)cc1)c1ccc(-c2cn[nH]c2)cc1 | MDA-MB-435 | 0.0
CCCCCCCCCC(CCCC(O)CC(=O)O)OC1OC(COC2OC(C)C(O)C(O)C2O)C(O)C(O)C1OC1OC(CO)C(O)C(O)C1OC1OC(C)C(O)C(O)C1O (stereo not given) | MDA-MB-435 | 0.0
O=c1cccc(C#CC#C/C=C/CO)o1 | MDA-MB-435 | 0.0
O=C(CN1CCN(c2ccc(Cl)cc2)CC1)N1CCN(c2nnc(-c3ccccc3)c(-c3ccccc3)n2)CC1 | MDA-MB-435 | 0.0
CC(C)Oc1ccc(C(=O)N[C@H](CNC(=O)CN(C)C)Cc2ccc(-c3cn4cccc([C@H](C)O)c4n3)cc2)cc1Cl | MDA-MB-435 | 1.0
COc1cc2c3c(n(CCCCl)c(=O)c2cc1OC)-c1ccc(C#N)cc1C3=O | MDA-MB-435 | 0.0

Data origin, for the record: PubChem BioAssay (NCI)
